Where do these numbers come from? They come from paper PMC4533973.

Below, each entry is listed with its recorded pEC50.
Test system: E. faecium (GRE5152)
Assay: Antibacterial activity (growth inhibition, EC50)
Format: cell-based
Conditions: Enterococcus faecium
pEC50: −log10 of the molar value.
Quantity Measured: pEC50

>>> reading("O=C(N[C@H](CO)[C@H](O)c1ccc([N+](=O)[O-])cc1)C(Cl)Cl [CAM, chloramphenicol]")
5.46
>>> reading("O=C(CCCCC(=O)N[C@H](CO)[C@H](O)c1ccc([N+](=O)[O-])cc1)N[C@H](CO)[C@H](O)c1ccc([N+](=O)[O-])cc1 [Compound 4]")
4.00

----------
System: E. coli (A2503C)
Test: Antibacterial activity (growth inhibition, EC50)
Format: cell-based, Escherichia coli
Conditions: Escherichia coli
pEC50: −log10 of the molar value.
Quantity Measured: pEC50

>>> reading("O=C(CCCCC(=O)N[C@H](CO)[C@H](O)c1ccc([N+](=O)[O-])cc1)N[C@H](CO)[C@H](O)c1ccc([N+](=O)[O-])cc1")
"< 4.00"
>>> reading("O=C(CCCC(=O)N[C@H](CO)[C@H](O)c1ccc([N+](=O)[O-])cc1)N[C@H](CO)[C@H](O)c1ccc([N+](=O)[O-])cc1")
4.17
>>> reading("O=C(CCCCCCC(=O)N[C@H](CO)[C@H](O)c1ccc([N+](=O)[O-])cc1)N[C@H](CO)[C@H](O)c1ccc([N+](=O)[O-])cc1")
"< 3.70"

----------
Tested on: post-translocation ribosomal complex (complex C) derived from E. coli
Test: Inhibition of peptide-bond formation (puromycin reaction, AcPhe-puromycin synthesis)
Type: biochemical
Conditions: overall inhibition constant (CI + C*I); 25°C, buffer A
Quantity Measured: Ki (nM)

>>> reading("O=C(CC(=O)N[C@H](CO)[C@H](O)c1ccc([N+](=O)[O-])cc1)N[C@H](CO)[C@H](O)c1ccc([N+](=O)[O-])cc1")
600
>>> reading("O=C(CCCCCCCC(=O)N[C@H](CO)[C@H](O)c1ccc([N+](=O)[O-])cc1)N[C@H](CO)[C@H](O)c1ccc([N+](=O)[O-])cc1")
2800
>>> reading("O=C(CCCCCCC(=O)N[C@H](CO)[C@H](O)c1ccc([N+](=O)[O-])cc1)N[C@H](CO)[C@H](O)c1ccc([N+](=O)[O-])cc1")
2300
>>> reading("O=C(CCCC(=O)N[C@H](CO)[C@H](O)c1ccc([N+](=O)[O-])cc1)N[C@H](CO)[C@H](O)c1ccc([N+](=O)[O-])cc1")
1200
>>> reading("O=C(/C=C/C(=O)N[C@H](CO)[C@H](O)c1ccc([N+](=O)[O-])cc1)N[C@H](CO)[C@H](O)c1ccc([N+](=O)[O-])cc1")
750
>>> reading("O=C(N[C@H](CO)[C@H](O)c1ccc([N+](=O)[O-])cc1)c1ccc(C(=O)N[C@H](CO)[C@H](O)c2ccc([N+](=O)[O-])cc2)cc1")
300
>>> reading("O=C(CCCCC(=O)N[C@H](CO)[C@H](O)c1ccc([N+](=O)[O-])cc1)N[C@H](CO)[C@H](O)c1ccc([N+](=O)[O-])cc1")
1870

----------
Tested on: P. aeruginosa (GRE5288)
Test: Antibacterial activity (growth inhibition, EC50)
Type: cell-based, Pseudomonas aeruginosa
Settings: Pseudomonas aeruginosa; TSB medium; clinical isolate with MexAB-OprM and MexXY efflux; read-out: EC50
Quantity Measured: EC50

>>> reading("O=C(CCCCCCC(=O)N[C@H](CO)[C@H](O)c1ccc([N+](=O)[O-])cc1)N[C@H](CO)[C@H](O)c1ccc([N+](=O)[O-])cc1 [Compound 6]")
"> 100 µM"
>>> reading("O=C(N[C@H](CO)[C@H](O)c1ccc([N+](=O)[O-])cc1)c1ccc(C(=O)N[C@H](CO)[C@H](O)c2ccc([N+](=O)[O-])cc2)cc1 [Compound 5]")
"15.2 µM"
>>> reading("O=C(CC(=O)N[C@H](CO)[C@H](O)c1ccc([N+](=O)[O-])cc1)N[C@H](CO)[C@H](O)c1ccc([N+](=O)[O-])cc1 [Compound 1]")
"> 100 µM"
>>> reading("O=C(CCCC(=O)N[C@H](CO)[C@H](O)c1ccc([N+](=O)[O-])cc1)N[C@H](CO)[C@H](O)c1ccc([N+](=O)[O-])cc1 [Compound 3]")
"42.4 µM"
>>> reading("O=C(/C=C/c1ccc(/C=C/C(=O)N[C@H](CO)[C@H](O)c2ccc([N+](=O)[O-])cc2)cc1)N[C@H](CO)[C@H](O)c1ccc([N+](=O)[O-])cc1 [Compound 8]")
"> 100 µM"
>>> reading("O=C(CCCCCCCC(=O)N[C@H](CO)[C@H](O)c1ccc([N+](=O)[O-])cc1)N[C@H](CO)[C@H](O)c1ccc([N+](=O)[O-])cc1 [Compound 7]")
"> 100 µM"
>>> reading("O=C(/C=C/C(=O)N[C@H](CO)[C@H](O)c1ccc([N+](=O)[O-])cc1)N[C@H](CO)[C@H](O)c1ccc([N+](=O)[O-])cc1 [Compound 2]")
"> 100 µM"

----------
Below, each entry is listed with its recorded melting point.
Quantity Measured: melting point

>>> reading("O=C(CC(=O)N[C@H](CO)[C@H](O)c1ccc([N+](=O)[O-])cc1)N[C@H](CO)[C@H](O)c1ccc([N+](=O)[O-])cc1 [Compound 1]")
"142 to 143 °C"
>>> reading("O=C(CCCCCCCC(=O)N[C@H](CO)[C@H](O)c1ccc([N+](=O)[O-])cc1)N[C@H](CO)[C@H](O)c1ccc([N+](=O)[O-])cc1 [Compound 7]")
"137 to 139 °C"
>>> reading("O=C(/C=C/C(=O)N[C@H](CO)[C@H](O)c1ccc([N+](=O)[O-])cc1)N[C@H](CO)[C@H](O)c1ccc([N+](=O)[O-])cc1 [Compound 2]")
"207 to 208 °C"
>>> reading("O=C(/C=C/c1ccc(/C=C/C(=O)N[C@H](CO)[C@H](O)c2ccc([N+](=O)[O-])cc2)cc1)N[C@H](CO)[C@H](O)c1ccc([N+](=O)[O-])cc1 [Compound 8]")
"144 to 145 °C"
>>> reading("O=C(CCCCCCC(=O)N[C@H](CO)[C@H](O)c1ccc([N+](=O)[O-])cc1)N[C@H](CO)[C@H](O)c1ccc([N+](=O)[O-])cc1 [Compound 6]")
"131 to 132 °C"

----------
System: S. aureus (WT)
Test: Antibacterial activity (growth inhibition, EC50)
Type: cell-based
Conditions: Staphylococcus aureus
Excerpt: A.S. Mankin (University of Illinois). […] The EC50 values were mathematically determined by non linear regression fitting of the observed culture optical-density values, expressed as the percentage of 0.700 (y), into Hill Equation, y=min+max−min/1+(x/EC50)^−n where min and max are the lowest and highest observed values of the culture optical density, respectively, x the concentration of the tested compound, and n the Hill coefficient that represents the largest absolute value of the curve slope. […]
pEC50: −log10 of the molar value.
Below, each entry is listed with its recorded pEC50.
Quantity Measured: pEC50

>>> reading("O=C(N[C@H](CO)[C@H](O)c1ccc([N+](=O)[O-])cc1)C(Cl)Cl [CAM, chloramphenicol]")
5.54
>>> reading("O=C(CCCCC(=O)N[C@H](CO)[C@H](O)c1ccc([N+](=O)[O-])cc1)N[C@H](CO)[C@H](O)c1ccc([N+](=O)[O-])cc1 [Compound 4]")
4.55

----------
Below, each entry is listed with its recorded pEC50.
Test system: E. coli (A2503C)
Experiment: Antibacterial activity (growth inhibition, EC50)
Format: cell-based, Escherichia coli
Details: Escherichia coli
pEC50: −log10 of the molar value.
Quantity Measured: pEC50

>>> reading("O=C(CCCCCCCC(=O)N[C@H](CO)[C@H](O)c1ccc([N+](=O)[O-])cc1)N[C@H](CO)[C@H](O)c1ccc([N+](=O)[O-])cc1")
"< 3.70"
>>> reading("O=C(N[C@H](CO)[C@H](O)c1ccc([N+](=O)[O-])cc1)C(Cl)Cl")
4.60
>>> reading("O=C(N[C@H](CO)[C@H](O)c1ccc([N+](=O)[O-])cc1)c1ccc(C(=O)N[C@H](CO)[C@H](O)c2ccc([N+](=O)[O-])cc2)cc1")
4.79
>>> reading("O=C(CC(=O)N[C@H](CO)[C@H](O)c1ccc([N+](=O)[O-])cc1)N[C@H](CO)[C@H](O)c1ccc([N+](=O)[O-])cc1")
"< 3.70"
>>> reading("O=C(/C=C/c1ccc(/C=C/C(=O)N[C@H](CO)[C@H](O)c2ccc([N+](=O)[O-])cc2)cc1)N[C@H](CO)[C@H](O)c1ccc([N+](=O)[O-])cc1")
"< 3.70"
>>> reading("O=C(/C=C/C(=O)N[C@H](CO)[C@H](O)c1ccc([N+](=O)[O-])cc1)N[C@H](CO)[C@H](O)c1ccc([N+](=O)[O-])cc1")
"< 3.70"
